Catalogue of Binding affinity (RU) readings, one per entry.
system-name: acetylcholine receptor
procedure-summary: SPR, AchR immobilised on chip, peptide 10 uM
Put your answer as a value accompanied by its unit after it.

Task: Request the reported Binding affinity (RU) associated with RRGVRR [6mer-1-210]
Output: 184 RU

Task: Need Binding affinity (RU) of KKSQQR [6mer-1-207] , thanks.
Output: 151 RU

Then this binder:
Task: Can you look up the measured Binding affinity (RU) of KKVRQK [6mer-1-247] for me?
Output: 122 RU
